tested on: panel of 55 breast cancer cell lines; assay: Cell growth inhibition assay (Cell Titer Glo, 72 h, 9 doses; GI50, TGI, LC50); type: cell-based, human; details: cell line HCC1187; censored GI50 values; value is the negative log10 of mol/L
For each of the compounds below, state its GI50.
Give the figure only, with no unit attached.

Quick note, GI50 for "COc1cc2c(Nc3ccc(NC(=O)c4ccccc4)cc3)ncnc2cc1OCCCN1CCOCC1" landed at 6.19

Quick note, GI50 for COc1ncc(-c2ccc3nccc(-c4ccnnc4)c3c2)cc1NS(=O)(=O)c1ccc(F)cc1F [GSK2126458A] landed at 8.30

Quick note, GI50 for "COc1ccc(C2=N[C@@H](c3ccc(Cl)cc3)[C@@H](c3ccc(Cl)cc3)N2C(=O)N2CCNC(=O)C2)c(OC(C)C)c1" landed at 4.68

Quick note, GI50 for O=C1NC(=O)/C(=C/c2ccc3nccc(-c4ccncc4)c3c2)S1 [GSK1059615B] landed at 6.48

====

system: panel of 55 breast cancer cell lines; experiment: Cell growth inhibition assay (Cell Titer Glo, 72 h, 9 doses; GI50, TGI, LC50); format: cell-based, human; conditions: cell line HCC1500; value is the negative log10 of mol/L
With a cut-off of 5, any GI50 strictly below it is called true; any GI50 meeting it or above is called false.

Query: Hello, is GI50 of the following compound strictly smaller than 5? C=CCNC1=C2C[C@@H](C)C[C@H](OC)[C@H](O)[C@@H](C)/C=C(\C)[C@H](OC(N)=O)[C@@H](OC)/C=C\C=C(/C)C(=O)NC(=CC1=O)C2=O [17-AAG]
Reply: false

Query: Hello, is GI50 of the following compound strictly smaller than 5? N.N.O=C([O-])C1(C(=O)[O-])CCC1.[Pt+2] [Carboplatin]
Reply: true

Query: Hello, is GI50 of the following compound strictly smaller than 5? CC(C)Oc1ccc(C(=O)N[C@H](CNC(=O)CN(C)C)Cc2ccc(-c3cn4cccc([C@H](C)O)c4n3)cc2)cc1Cl [GSK923295]
Reply: false

Query: Hello, is GI50 of the following compound strictly smaller than 5? CCn1cc(-c2ccnc3[nH]c(-c4cccc(CN(C)C)c4)cc23)c(-c2ccc(NC(=O)N(C)C)cc2)n1 [GSK1070916]
Reply: false

Query: Hello, is GI50 of the following compound strictly smaller than 5? CCNCCCCNCCCCNCCCCNCCCCNCC=CCNCCCCNCCCCNCCCCNCCCCNCC.Cl.Cl.Cl.Cl.Cl.Cl.Cl.Cl.Cl.Cl (stereo in doubt) [CGC-11144]
Reply: false

Query: Hello, is GI50 of the following compound strictly smaller than 5? CC(/C=C/C(=O)NO)=C\[C@@H](C)C(=O)c1ccc(N(C)C)cc1 [Trichostatin A]
Reply: true

Query: Hello, is GI50 of the following compound strictly smaller than 5? CC(=O)Nc1cccc(-n2c(=O)n(C3CC3)c(=O)c3c(Nc4ccc(I)cc4F)n(C)c(=O)c(C)c32)c1.C[S+](C)[O-] [GSK1120212B]
Reply: true

Query: Hello, is GI50 of the following compound strictly smaller than 5? O=C1C(Cl)=C(NCCN2CCOCC2)C(=O)c2ncccc21 [NSC 663284]
Reply: false

Query: Hello, is GI50 of the following compound strictly smaller than 5? O=c1[nH]c(=O)n([C@H]2C[C@H](O)[C@@H](CO)O2)cc1F [5-FdUR]
Reply: true

Query: Hello, is GI50 of the following compound strictly smaller than 5? COc1ccc(C2=N[C@@H](c3ccc(Cl)cc3)[C@@H](c3ccc(Cl)cc3)N2C(=O)N2CCNC(=O)C2)c(OC(C)C)c1 [Nutlin 3a]
Reply: true

Query: Hello, is GI50 of the following compound strictly smaller than 5? O=S(=O)(CC1CS1)c1ccc(Oc2ccccc2)cc1 (centres unmarked) [SB-3CT]
Reply: true

Query: Hello, is GI50 of the following compound strictly smaller than 5? Cc1cc(C(=O)N2CCN(c3cccc(Cl)c3)CC2)n(-c2ccccc2)n1 [XRP44X]
Reply: false

Query: Hello, is GI50 of the following compound strictly smaller than 5? CC(C)(C)c1cc(C=C(C#N)C#N)cc(Br)c1O [AG1024]
Reply: true

Query: Hello, is GI50 of the following compound strictly smaller than 5? NC(=O)Nc1sc(-c2ccc(F)cc2)cc1C(N)=O [TPCA-1]
Reply: false

Query: Hello, is GI50 of the following compound strictly smaller than 5? NS(=O)(=O)c1ccc(Nc2nc(OCC3CCCCC3)c3[nH]cnc3n2)cc1 [NU6102]
Reply: true

Query: Hello, is GI50 of the following compound strictly smaller than 5? N#Cc1c(NC(=O)c2cccc3ccccc23)sc2c1CCCC2 [TCS JNK 5a]
Reply: false

Query: Hello, is GI50 of the following compound strictly smaller than 5? Oc1cc(-c2nc(-c3ccccc3)[nH]c2-c2ccncc2)ccc1Cl [L-779450]
Reply: true

Query: Hello, is GI50 of the following compound strictly smaller than 5? O=C1NC(=O)/C(=C/c2ccc(-c3ccc(F)cc3O)o2)S1 [AS-252424]
Reply: false

Query: Hello, is GI50 of the following compound strictly smaller than 5? CC(C)[C@H](CO)Nc1nc(Nc2cccc(Cl)c2)c2ncn(C(C)C)c2n1 [Purvalanol A]
Reply: true

Query: Hello, is GI50 of the following compound strictly smaller than 5? Cc1cc(Nc2cc(N3CCN(C)CC3)nc(Sc3ccc(NC(=O)C4CC4)cc3)n2)n[nH]1 [VX-680]
Reply: true

Query: Hello, is GI50 of the following compound strictly smaller than 5? COc1cc2ncnc(Nc3cccc(Cl)c3)c2cc1OC [AG1478]
Reply: true

Query: Hello, is GI50 of the following compound strictly smaller than 5? COc1cc2c(Nc3ccc(NC(=O)c4ccccc4)cc3)ncnc2cc1OCCCN1CCOCC1 [ZM 447439]
Reply: false

====

test system: panel of 55 breast cancer cell lines; assay: Cell growth inhibition assay (Cell Titer Glo, 72 h, 9 doses; GI50, TGI, LC50); format: cell-based, human; settings: Homo sapiens, MDA-MB-468, cell line MDAMB468; read-out: GI50 (converted)
For each of the molecules below, state its GI50.
Give just the numeric value; µM need not be written.

Quick note, GI50 for "CC(=O)O[C@@]12CO[C@@H]1C[C@H](O)[C@@]1(C)C(=O)[C@H](O)C3=C(C)[C@@H](OC(=O)[C@H](O)[C@@H](NC(=O)OC(C)(C)C)c4ccccc4)C[C@@](O)([C@@H](OC(=O)c4ccccc4)[C@H]21)C3(C)C" landed at 0.00288

Quick note, GI50 for "CCN(CC)CCCCNc1ncc2cc(-c3cc(OC)cc(OC)c3)c(NC(=O)NC(C)(C)C)nc2n1" landed at 6.61

Quick note, GI50 for "CCC1=C[C@@H]2CN(C1)Cc1c([nH]c3ccccc13)[C@@](C(=O)OC)(c1cc3c(cc1OC)N(C)[C@H]1[C@@](O)(C(=O)OC)[C@H](OC(C)=O)[C@]4(CC)C=CCN5CC[C@]31[C@@H]54)C2" landed at 0.0107

Quick note, GI50 for "CO[C@H]1C[C@@H]2CC[C@@H](C)[C@@](O)(O2)C(=O)C(=O)N2CCCC[C@H]2C(=O)O[C@H]([C@H](C)C[C@@H]2CC[C@@H](O)[C@H](OC)C2)CC(=O)[C@H](C)/C=C(\C)[C@@H](O)[C@@H](OC)C(=O)[C@H](C)C[C@H](C)/C=C/C=C/C=C/1C" landed at 2.82

Quick note, GI50 for "CN(C)C/C=C/C(=O)Nc1cc2c(Nc3ccc(F)c(Cl)c3)ncnc2cc1O[C@H]1CCOC1" landed at 0.631

Quick note, GI50 for "NS(=O)(=O)OC[C@@H]1C[C@@H](n2ccc3c(N[C@H]4CCc5ccccc54)ncnc32)C[C@@H]1O" landed at 0.204

Quick note, GI50 for C/C(=C\c1csc(C)n1)[C@@H]1C[C@@H]2O[C@]2(C)CCC[C@H](C)[C@H](O)[C@@H](C)C(=O)C(C)(C)[C@@H](O)CC(=O)N1 [Ixabepilone] landed at 0.00132

====

For each of the compounds below, state its GI50.
tested on: panel of 55 breast cancer cell lines; assay: Cell growth inhibition assay (Cell Titer Glo, 72 h, 9 doses; GI50, TGI, LC50); format: cell-based, human; conditions: cell line MDAMB436; value is the negative log10 of mol/L
Give the figure only, with no unit attached.

Reading of GI50 for CCn1cc(-c2ccnc3[nH]c(-c4cccc(CN(C)C)c4)cc23)c(-c2ccc(NC(=O)N(C)C)cc2)n1 [GSK1070916] with panel of 55 breast cancer cell lines: 7.01

Reading of GI50 for COc1cc2c(Nc3ccc(NC(=O)c4ccccc4)cc3)ncnc2cc1OCCCN1CCOCC1 [ZM 447439] with panel of 55 breast cancer cell lines: 5.33

Reading of GI50 for CC(C)(C)c1cc(C=C(C#N)C#N)cc(Br)c1O [AG1024] with panel of 55 breast cancer cell lines: 4.48

Reading of GI50 for CCNCCCCNCCCCNCCCCNCCCCNCC=CCNCCCCNCCCCNCCCCNCCCCNCC.Cl.Cl.Cl.Cl.Cl.Cl.Cl.Cl.Cl.Cl (stereo in doubt) [CGC-11144] with panel of 55 breast cancer cell lines: 6.06

Reading of GI50 for CC(/C=C/C(=O)NO)=C\[C@@H](C)C(=O)c1ccc(N(C)C)cc1 [Trichostatin A] with panel of 55 breast cancer cell lines: 4.67

Reading of GI50 for N.N.O=C([O-])C1(C(=O)[O-])CCC1.[Pt+2] [Carboplatin] with panel of 55 breast cancer cell lines: 4.18

Reading of GI50 for Cc1cc(C(=O)N2CCN(c3cccc(Cl)c3)CC2)n(-c2ccccc2)n1 [XRP44X] with panel of 55 breast cancer cell lines: 5.47

Reading of GI50 for Cc1cc(Nc2cc(N3CCN(C)CC3)nc(Sc3ccc(NC(=O)C4CC4)cc3)n2)n[nH]1 [VX-680] with panel of 55 breast cancer cell lines: 6.19

Reading of GI50 for COc1cc2ncnc(Nc3cccc(Cl)c3)c2cc1OC [AG1478] with panel of 55 breast cancer cell lines: 3.99

Reading of GI50 for CC(C)Oc1ccc(C(=O)N[C@H](CNC(=O)CN(C)C)Cc2ccc(-c3cn4cccc([C@H](C)O)c4n3)cc2)cc1Cl [GSK923295] with panel of 55 breast cancer cell lines: 7.59

Reading of GI50 for NS(=O)(=O)c1ccc(Nc2nc(OCC3CCCCC3)c3[nH]cnc3n2)cc1 [NU6102] with panel of 55 breast cancer cell lines: 4.28

Reading of GI50 for O=C1NC(=O)/C(=C/c2ccc(-c3ccc(F)cc3O)o2)S1 [AS-252424] with panel of 55 breast cancer cell lines: 4.74

Reading of GI50 for COc1ccc(C2=N[C@@H](c3ccc(Cl)cc3)[C@@H](c3ccc(Cl)cc3)N2C(=O)N2CCNC(=O)C2)c(OC(C)C)c1 [Nutlin 3a] with panel of 55 breast cancer cell lines: 4.30

Reading of GI50 for C=CCNC1=C2C[C@@H](C)C[C@H](OC)[C@H](O)[C@@H](C)/C=C(\C)[C@H](OC(N)=O)[C@@H](OC)/C=C\C=C(/C)C(=O)NC(=CC1=O)C2=O [17-AAG] with panel of 55 breast cancer cell lines: 5.96

Reading of GI50 for Oc1cc(-c2nc(-c3ccccc3)[nH]c2-c2ccncc2)ccc1Cl [L-779450] with panel of 55 breast cancer cell lines: 5.66

Reading of GI50 for O=c1[nH]c2ccccc2n1C1CCN(Cc2ccc(-c3nc4cc5[nH]cnc5cc4nc3-c3ccccc3)cc2)CC1 [Sigma AKT1-2 inhibitor] with panel of 55 breast cancer cell lines: 4.47

Reading of GI50 for CC(=O)Nc1cccc(-n2c(=O)n(C3CC3)c(=O)c3c(Nc4ccc(I)cc4F)n(C)c(=O)c(C)c32)c1.C[S+](C)[O-] [GSK1120212B] with panel of 55 breast cancer cell lines: 4.81

Reading of GI50 for CC(C)[C@H](CO)Nc1nc(Nc2cccc(Cl)c2)c2ncn(C(C)C)c2n1 [Purvalanol A] with panel of 55 breast cancer cell lines: 3.78

Cited source: patent US10770169B2
